target: UniProt P63000; assay: activated mutant Rac1 GTP binding inhibitors, SAR follow-up, biochemical, oxadiazole analogs, multiplex bead flow cytometry (AID 2051); conditions: Bead-based flow cytometry, Bodipy-FL-GTP binding to GST-Rac1; measured here: Ki calculated from EC50
Classify by Ki. Ranges: lower segment = under 200 nM, middle segment = from 200 nM up to 400 nM, upper segment = 400 nM and over

{"LINE_NOTATION": "COc1ccc(-c2noc(CCC(=O)N3CCN(c4ccc(F)cc4)CC3)n2)cc1", "SYSTEM_UNDER_TEST": "UniProt P63000", "ASSIGNED_CLASS": "lower segment"}
{"LINE_NOTATION": "COc1ccc(-c2noc(CCC(=O)N3CCN(c4ccccc4C)CC3)n2)cc1", "SYSTEM_UNDER_TEST": "UniProt P63000", "ASSIGNED_CLASS": "lower segment"}
{"LINE_NOTATION": "COc1ccc(-c2noc(CCC(=O)N3CCN(c4ccccc4)CC3)n2)cc1", "SYSTEM_UNDER_TEST": "UniProt P63000", "ASSIGNED_CLASS": "lower segment"}
{"LINE_NOTATION": "COc1ccc(-c2noc(CCC(=O)N3CCN(c4cccc(Br)c4)CC3)n2)cc1", "SYSTEM_UNDER_TEST": "UniProt P63000", "ASSIGNED_CLASS": "upper segment"}
{"LINE_NOTATION": "COc1ccccc1-c1noc(CCC(=O)N2CCN(c3cc(C)ccc3C)CC2)n1", "SYSTEM_UNDER_TEST": "UniProt P63000", "ASSIGNED_CLASS": "upper segment"}
{"LINE_NOTATION": "COc1ccc(-c2noc(CCC(=O)N3CCN(c4cccc(C)c4C)CC3)n2)cc1", "SYSTEM_UNDER_TEST": "UniProt P63000", "ASSIGNED_CLASS": "lower segment"}
{"LINE_NOTATION": "COc1ccc(-c2noc(CCC(=O)N3CCN(c4cccc(C(F)(F)F)c4)CC3)n2)cc1", "SYSTEM_UNDER_TEST": "UniProt P63000", "ASSIGNED_CLASS": "upper segment"}
{"LINE_NOTATION": "COc1ccc(-c2noc(CCC(=O)N3CCN(c4ccccc4Cl)CC3)n2)cc1", "SYSTEM_UNDER_TEST": "UniProt P63000", "ASSIGNED_CLASS": "upper segment"}
{"LINE_NOTATION": "Cc1ccc(C)c(N2CCN(C(=O)CCc3nc(-c4cccc(Cl)c4)no3)CC2)c1", "SYSTEM_UNDER_TEST": "UniProt P63000", "ASSIGNED_CLASS": "upper segment"}
{"LINE_NOTATION": "Cc1ccc(C)c(N2CCN(C(=O)CCc3nc(-c4ccc(C(F)(F)F)cc4)no3)CC2)c1", "SYSTEM_UNDER_TEST": "UniProt P63000", "ASSIGNED_CLASS": "lower segment"}
{"LINE_NOTATION": "COc1ccc(-c2noc(CCCCC(=O)N3CCN(c4cc(C)ccc4C)CC3)n2)cc1", "SYSTEM_UNDER_TEST": "UniProt P63000", "ASSIGNED_CLASS": "upper segment"}
{"LINE_NOTATION": "COc1ccc(-c2noc(CCC(=O)N3CCC(c4cc(C)ccc4C)CC3)n2)cc1", "SYSTEM_UNDER_TEST": "UniProt P63000", "ASSIGNED_CLASS": "middle segment"}
{"LINE_NOTATION": "COc1ccc(-c2coc(CCC(=O)N3CCN(c4cc(C)ccc4C)CC3)n2)cc1", "SYSTEM_UNDER_TEST": "UniProt P63000", "ASSIGNED_CLASS": "middle segment"}
{"LINE_NOTATION": "Cc1ccc(C)c(N2CCN(C(=O)CCc3nc(-c4ccc(Br)cc4)no3)CC2)c1", "SYSTEM_UNDER_TEST": "UniProt P63000", "ASSIGNED_CLASS": "middle segment"}
{"LINE_NOTATION": "Cc1ccc(C)c(N2CCN(C(=O)CCc3nc(-c4ccc(F)cc4)no3)CC2)c1", "SYSTEM_UNDER_TEST": "UniProt P63000", "ASSIGNED_CLASS": "lower segment"}
{"LINE_NOTATION": "COc1ccc(-c2noc(CCC(=O)N3CCN(c4ccccc4OC)CC3)n2)cc1", "SYSTEM_UNDER_TEST": "UniProt P63000", "ASSIGNED_CLASS": "middle segment"}
{"LINE_NOTATION": "Cc1ccc(C)c(N2CCN(C(=O)CCc3nc(-c4cccc(F)c4)no3)CC2)c1", "SYSTEM_UNDER_TEST": "UniProt P63000", "ASSIGNED_CLASS": "middle segment"}
{"LINE_NOTATION": "Cc1ccc(-c2noc(CCC(=O)N3CCN(c4cc(C)ccc4C)CC3)n2)cc1", "SYSTEM_UNDER_TEST": "UniProt P63000", "ASSIGNED_CLASS": "middle segment"}
{"LINE_NOTATION": "COc1ccc(-c2noc(CC(=O)N3CCN(c4cc(C)ccc4C)CC3)n2)cc1", "SYSTEM_UNDER_TEST": "UniProt P63000", "ASSIGNED_CLASS": "upper segment"}
{"LINE_NOTATION": "COc1ccc(-c2noc(CCC(=O)N3CCN(c4ccccc4C(F)(F)F)CC3)n2)cc1", "SYSTEM_UNDER_TEST": "UniProt P63000", "ASSIGNED_CLASS": "lower segment"}
{"LINE_NOTATION": "COc1ccc(-c2noc(CCC(=O)N3CCN(c4ccc(C)cc4)CC3)n2)cc1", "SYSTEM_UNDER_TEST": "UniProt P63000", "ASSIGNED_CLASS": "lower segment"}
{"LINE_NOTATION": "Cc1ccc(C)c(N2CCN(C(=O)CCc3nc(-c4cccc(Br)c4)no3)CC2)c1", "SYSTEM_UNDER_TEST": "UniProt P63000", "ASSIGNED_CLASS": "lower segment"}
{"LINE_NOTATION": "Cc1ccc(C)c(N2CCN(C(=O)CCc3nc(-c4ccccc4)no3)CC2)c1", "SYSTEM_UNDER_TEST": "UniProt P63000", "ASSIGNED_CLASS": "middle segment"}
{"LINE_NOTATION": "Cc1ccc(C)c(N2CCN(C(=O)CCc3nc(-c4ccccc4C)no3)CC2)c1", "SYSTEM_UNDER_TEST": "UniProt P63000", "ASSIGNED_CLASS": "lower segment"}
{"LINE_NOTATION": "COc1ccc(-c2noc(CCC(=O)N3CCN(c4ccccc4F)CC3)n2)cc1", "SYSTEM_UNDER_TEST": "UniProt P63000", "ASSIGNED_CLASS": "middle segment"}
{"LINE_NOTATION": "COc1cccc(-c2noc(CCC(=O)N3CCN(c4cc(C)ccc4C)CC3)n2)c1", "SYSTEM_UNDER_TEST": "UniProt P63000", "ASSIGNED_CLASS": "upper segment"}
{"LINE_NOTATION": "COc1ccc(-c2noc(CCC(=O)N3CCN(c4cccc(OC)c4)CC3)n2)cc1", "SYSTEM_UNDER_TEST": "UniProt P63000", "ASSIGNED_CLASS": "upper segment"}
{"LINE_NOTATION": "Cc1ccc(C)c(N2CCN(C(=O)CCc3nc(-c4ccccc4Cl)no3)CC2)c1", "SYSTEM_UNDER_TEST": "UniProt P63000", "ASSIGNED_CLASS": "lower segment"}
{"LINE_NOTATION": "Cc1ccc(C)c(N2CCN(C(=O)CCc3nc(-c4ccccc4C(F)(F)F)no3)CC2)c1", "SYSTEM_UNDER_TEST": "UniProt P63000", "ASSIGNED_CLASS": "middle segment"}
{"LINE_NOTATION": "COc1ccc(-c2noc(CCC(=O)N3CCN(c4cccc(Cl)c4)CC3)n2)cc1", "SYSTEM_UNDER_TEST": "UniProt P63000", "ASSIGNED_CLASS": "upper segment"}
{"LINE_NOTATION": "COc1ccc(-c2cc(CCC(=O)N3CCN(c4cc(C)ccc4C)CC3)on2)cc1", "SYSTEM_UNDER_TEST": "UniProt P63000", "ASSIGNED_CLASS": "lower segment"}
{"LINE_NOTATION": "COc1ccc(-c2noc(CCC(=O)N3CCN(c4ccc(Br)cc4)CC3)n2)cc1", "SYSTEM_UNDER_TEST": "UniProt P63000", "ASSIGNED_CLASS": "middle segment"}
{"LINE_NOTATION": "Cc1ccc(C)c(N2CCN(C(=O)CCc3nc(-c4ccc(N(C)C)cc4)no3)CC2)c1", "SYSTEM_UNDER_TEST": "UniProt P63000", "ASSIGNED_CLASS": "middle segment"}
{"LINE_NOTATION": "COc1ccc(-c2ccc(CCC(=O)N3CCN(c4cc(C)ccc4C)CC3)[nH]2)cc1", "SYSTEM_UNDER_TEST": "UniProt P63000", "ASSIGNED_CLASS": "upper segment"}
{"LINE_NOTATION": "Cc1cccc(-c2noc(CCC(=O)N3CCN(c4cc(C)ccc4C)CC3)n2)c1", "SYSTEM_UNDER_TEST": "UniProt P63000", "ASSIGNED_CLASS": "lower segment"}
{"LINE_NOTATION": "COc1ccc(-c2noc(CCCC(=O)N3CCN(c4cc(C)ccc4C)CC3)n2)cc1", "SYSTEM_UNDER_TEST": "UniProt P63000", "ASSIGNED_CLASS": "upper segment"}
